// data source = patent US9328122B2

test system: U87-MG (malignant glioma) cells; assay: MTT cell growth inhibition, solid tumor cells; assay type: cell-based; details: Homo sapiens, U-87 MG; U87-MG, 72 h, MTT; read-out: IC50
Could you mark each record 1.0 if its IC50 falls strictly under 2 µg/mL, and 0.0 if it equals or exceeds it?

Consider the following illustrative entries.
COc1ccc2cc1Oc1ccc(cc1)C[C@H]1c3cc(c(OC)cc3CCN1C)Oc1c(OCC(O)CN3CCCCC3)c(OC)cc3c1[C@H](C2)N(C)CC3 (stereo partly drawn)	1.0
C=C(C)COc1c(OC)cc2c3c1Oc1cc4c(cc1OC)CCN(C)[C@H]4Cc1ccc(cc1)Oc1cc(ccc1OC)C[C@@H]3N(C)CC2	1.0
COc1ccc2cc1Oc1ccc(cc1)C[C@H]1c3cc(c(OC)cc3CCN1C)Oc1c(OC3CCCC3)c(OC)cc3c1[C@H](C2)N(C)CC3	0.0
COc1ccc2cc1Oc1ccc(cc1)C[C@H]1c3cc(c(OC)cc3CCN1C)Oc1c(OS(=O)(=O)c3ccccc3)c(OC)cc3c1[C@H](C2)N(C)CC3	1.0
COc1ccc2cc1Oc1ccc(cc1)C[C@H]1c3cc(c(OC)cc3CCN1C)Oc1c(OCc3cccc(F)c3F)c(OC)cc3c1[C@H](C2)N(C)CC3	0.0
COc1ccc2cc1Oc1ccc(cc1)C[C@H]1c3cc(c(OC)cc3CCN1C)Oc1c(OCC(O)CN3CCN(C#N)CC3)c(OC)cc3c1[C@H](C2)N(C)CC3 (stereo partly drawn)	1.0
COc1ccc2cc1Oc1ccc(cc1)C[C@H]1c3cc(c(OC)cc3CCN1C)Oc1c(OC(=O)c3c(F)cccc3Cl)c(OC)cc3c1[C@H](C2)N(C)CC3	1.0
COc1ccc2cc1Oc1ccc(cc1)C[C@H]1c3cc(c(OC)cc3CCN1C)Oc1c(OCc3ccc(C(F)(F)F)cc3)c(OC)cc3c1[C@H](C2)N(C)CC3	0.0

# TODO verify IC50 < 2 µg/mL strictly for this compound: COc1cc(OC)cc(C(=O)Oc2c(OC)cc3c4c2Oc2cc5c(cc2OC)CCN(C)[C@H]5Cc2ccc(cc2)Oc2cc(ccc2OC)C[C@@H]4N(C)CC3)c1
1.0

# TODO verify IC50 < 2 µg/mL strictly for this compound: COc1ccc2cc1Oc1ccc(cc1)C[C@H]1c3cc(c(OC)cc3CCN1C)Oc1c(OCC(O)CN3CCCC(C)C3)c(OC)cc3c1[C@H](C2)N(C)CC3 (stereo partly drawn)
1.0

# TODO verify IC50 < 2 µg/mL strictly for this compound: C=CCOc1c(OC)cc2c3c1Oc1cc4c(cc1OC)CCN(C)[C@H]4Cc1ccc(cc1)Oc1cc(ccc1OC)C[C@@H]3N(C)CC2
1.0
